Structures can show the parent of a compound that is named as a salt.
Documented melting point across a set of compounds

Take a look at these entries with their results.
- compound: "CC(C)COC(=O)COc1ccc(C(=O)CN2Cc3cc(C(=N)N)ccc3C2=O)cc1OCC(=O)OCC(C)C (as salt: hydroiodid) [Example 24]"
  melting point: "95 to 96 °C"
- compound: "CCOC(=O)COc1ccc(C(=O)CN2Cc3cc(C(=N)NO)ccc3C2=O)c(O)c1Cl (hydrate or solvate) [Example 54]"
  melting point: "214 to 215 °C"
- compound: "CCOC(=O)COc1cc(O)c(C(=O)CN2Cc3cc(C(=N)NO)ccc3C2=O)c(OC)c1 [Example 62]"
  melting point: "209 to 210 °C"
- compound: "COC(=O)NC(=N)c1ccc2c(c1)CN(CC(=O)c1ccc(OCC(=O)OCC(C)C)cc1)C2=O [Example 11]"
  melting point: "162 to 163 °C"
- compound: "CCOC(=O)COc1ccc(C(=O)CN2Cc3cc(C(=N)N)ccc3C2=O)cc1OCC(=O)OCC (as salt: salt) (hydrate or solvate) [Example 20]"
  melting point: "168 to 169 °C"
- compound: "CCOC(=O)COc1ccc(C(CN2Cc3cc(C(=N)NO)ccc3C2=O)=NO)cc1OCC(=O)OCC [Example 23]"
  melting point: "181 to 182 °C"
- compound: "CCCc1c(OCC(=O)O)ccc(C(=O)CN2Cc3cc(C(=N)N)ccc3C2=O)c1O (as salt: trifluoroacetic acid salt) [Example 60]"
  melting point: "222 to 223 °C"
- compound: "CC(C)COC(=O)COc1ccc(C(=O)CN2Cc3cc(C(=N)NC(=O)OCC(C)C)ccc3C2=O)cc1 (hydrate or solvate) [Example 12]"
  melting point: "140 to 141 °C"
- compound: "CCOC(=O)COc1ccc(C(=O)CN2Cc3cc(C(=N)N)ccc3C2=O)cc1S(=O)(=O)CC (as salt: salt) (hydrate or solvate) [Example 35]"
  melting point: "174 to 175 °C"
- compound: "CCOC(=O)COC1CCN(C(=O)CN2Cc3cc(C(=N)NC(=O)OC(C)(C)C)ccc3C2=O)CC1 (hydrate or solvate) [Example 72]"
  melting point: "83 to 85 °C"

Req: Specify reported melting point for the compound shown: CC(C)COC(=O)COc1ccc(C(=O)CN2Cc3cc(C(=N)NC(=O)OCc4ccccc4)ccc3C2=O)cc1 [Example 13]
Resp: 139 to 140 °C

Req: Specify reported melting point for the compound shown: CC(C)COC(=O)COc1ccc(C(=O)CN2Cc3cc(C(=N)NS(C)(=O)=O)ccc3C2=O)cc1 [Example 14]
Resp: 177 to 178 °C

Req: Specify reported melting point for the compound shown: CCOC(=O)COc1ccc(C(=O)CN2Cc3cc(C(=N)NC(=O)OCC(C)C)ccc3C2=O)cc1N(CC(=O)OCC)S(C)(=O)=O (hydrate or solvate) [Example 39]
Resp: 80 to 82 °C

---

Documented melting point across a set of compounds

Req: Specify reported melting point for the compound shown: CCOC(=O)COc1cc(O)c(C(=O)CN2Cc3cc(C(=N)NO)ccc3C2=O)cc1C(C)(C)C
Resp: 177 to 178 °C

Req: Specify reported melting point for the compound shown: CCCc1c(OCC(=O)OCC)ccc(C(=O)CN2Cc3cc(C(=N)NO)ccc3C2=O)c1O
Resp: 211 to 212 °C

Req: Specify reported melting point for the compound shown: CCOC(=O)COc1c(SCC)cc(C(=O)CN2Cc3cc(C(=N)NO)ccc3C2=O)cc1SCC
Resp: 183 to 184 °C

Req: Specify reported melting point for the compound shown: CCOC(=O)COc1ccc(O)c(C(=O)CN2Cc3cc(C(=N)NO)ccc3C2=O)c1
Resp: 158 to 159 °C

Just for reference, patent US7964628B2 is where these values come from.
